Tested on: mAb 7D8
EXPERIMENT SUMMARY: Surface plasmon resonance of mAb 7D8 binding to amino-coupled peptopes
ASSAY SETUP: Langmuir with Mass Transfer; 7D8 2.7 nM
Description: Analyses were performed using a BIAcore X surface plasmon resonance instrument (GE Healthcare) and all reagents were obtained from GE Healthcare. […] Binding data were extracted from the sensorgram, aligned, and analyzed using the BIAevaluation software by fitting to the following binding models (i) Langmuir, (ii) Langmuir with mass transfer, and (iii) Interaction of a bivalent analyte [A+B→AB; AB+B→AB2].
Recorded measurements of kobs, one per entry
The response must be a number in s⁻¹ with no trailing unit.

MACROMOLECULE SEQUENCE: KAQKAQAKQAKQAQKAQKAQAKQAKQGGGHEDT [p76, KAQKAQAKQAKQAQKAQKAQAKQAKQGGGHEDT]
SUBJECT OF TEST: mAb 7D8
UNIT TAG: s⁻¹
kobs: 0.0372
--
MACROMOLECULE SEQUENCE: KAQKAQAKQAKQAQKAQKAQAKQAKQAQHEDT [p75, KAQKAQAKQAKQAQKAQKAQAKQAKQAQHEDT]
SUBJECT OF TEST: mAb 7D8
UNIT TAG: s⁻¹
kobs: 0.0246
--
MACROMOLECULE SEQUENCE: KAQKAQAKQAKQAQKAQKAQAKQAKQGPGHEDT [p77, KAQKAQAKQAKQAQKAQKAQAKQAKQGPGHEDT]
SUBJECT OF TEST: mAb 7D8
UNIT TAG: s⁻¹
kobs: 1.18

Now turn to the next sequence.
Task: Supply measured kobs of KAQKAQAKQAKQAQKAQKAQAKQAKQVTVHEDT [p78, KAQKAQAKQAKQAQKAQKAQAKQAKQVTVHEDT] in your reply.
Result: 0.0536

The measurements presented in this section are drawn from patent US10046050B2.
